The reported measurements were obtained from patent US10184116B2.

For each record, write down the corresponding Relative luminescence activity, Furimazine, Int..
# method-notes: Substrate specificity of WNanoKAZ mutants, crude enzyme solution (Example 11)
# Type: biochemical
# stated-conditions: Int.
One number for each entry.

For each of the molecules below, note its Relative luminescence activity, Furimazine, Int..
1. WNanoKAZ-E115P: WNanoKAZ with substitution of proline for glutamic acid at position 115; SEQ ID NO: 10 (protein) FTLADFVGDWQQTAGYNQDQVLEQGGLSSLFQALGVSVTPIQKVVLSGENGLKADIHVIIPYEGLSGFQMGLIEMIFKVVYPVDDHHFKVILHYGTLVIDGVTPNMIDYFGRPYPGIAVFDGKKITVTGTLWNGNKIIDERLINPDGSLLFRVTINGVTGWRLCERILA
2. WNanoKAZ-V90I: single amino acid-substituted WNanoKAZ mutant, valine 90 back to isoleucine; SEQ ID NO: 8 (protein) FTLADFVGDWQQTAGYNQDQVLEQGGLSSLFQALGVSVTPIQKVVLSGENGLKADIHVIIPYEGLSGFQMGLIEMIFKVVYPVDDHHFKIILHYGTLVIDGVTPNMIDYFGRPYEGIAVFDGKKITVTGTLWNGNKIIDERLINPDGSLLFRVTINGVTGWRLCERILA
3. WNanoKAZ-K124Q: single amino acid-substituted WNanoKAZ mutant K124Q; SEQ ID NO: 12 (protein) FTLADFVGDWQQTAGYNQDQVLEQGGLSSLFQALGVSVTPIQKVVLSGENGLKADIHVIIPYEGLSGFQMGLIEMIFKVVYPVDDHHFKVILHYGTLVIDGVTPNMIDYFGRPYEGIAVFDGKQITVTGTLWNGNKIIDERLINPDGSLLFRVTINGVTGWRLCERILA

Outgoing:
1. 11
2. 15
3. 11
